All figures here come from the RNAGym collection of RNA variant scans (doi:10.7554/elife.90254).

B1: OR4K15 (parent)
chain: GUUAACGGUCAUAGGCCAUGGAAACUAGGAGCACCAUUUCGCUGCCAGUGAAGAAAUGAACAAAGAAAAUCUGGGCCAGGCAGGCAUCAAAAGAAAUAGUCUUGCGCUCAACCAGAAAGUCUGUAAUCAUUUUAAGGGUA

- Variants of: B1
- protocol-summary: self-cleavage, relative activity (ratio to wild type); higher = more cleavage; in vitro, sequencing; the parent is a self-cleaving ribozyme
For each entry below, report its self-cleavage value.
// return a plain number; no unit text

Lookup result for A64G A111G ; measured self-cleavage: 0.05

The variant identified as A62U A90G registered its self-cleavage at 1.26

The variant listed as U26C U139A shows self-cleavage equal to 1.49

Reported self-cleavage of A11C U37C : 0.79

Record summary for A24G A126G : reported self-cleavage = 0.83

Measured self-cleavage of U19C A94G : 1.53

Field self-cleavage (entry C121U U127C ) reads 1.46

Recorded result, A27G A69G , self-cleavage: 0.62

get_value(item= U19C G44A , readout=self-cleavage) returns 0.78

self-cleavage reading for U57A U130A : 0.77

Per the records, this variant ( C77U G79U ) has self-cleavage equal to 0.13

Item: A47U A117C | self-cleavage: 0.24

// self-cleavage lookup, variant = G106A U131C , result: 0.03

Recorded self-cleavage (variant A96U U108C ): 0

The measured self-cleavage associated with A90U A129U reads 1.29

According to the records, this variant A69G A89C displays self-cleavage of 1.65

Lab note: A67G U72A gave self-cleavage of 0.26
